Data origin: PubChem BioAssay (NCI)

Tested on: HOP-62 NSCLC
Experiment: NCI tumour cell line growth inhibition, 48 h
readout_name: GI50

Prompt: Need GI50 of OCC1OC(n2cnc3c(NCc4ccccc4O)ncnc32)C(O)C1O (configuration not stated) , thanks.
Completion: 2.33 µM

Prompt: Need GI50 of `COc1ccc2nc3ccccc3c(NCc3ccccc3)c2c1` , thanks.
Completion: 2.62 µM

Prompt: Need GI50 of `CCOC(=O)CCSC1=CC(=O)c2nc3ccccc3c3ccnc1c23` , thanks.
Completion: 16.4 µM

Prompt: Need GI50 of `CN(C)C/C=C/C(=O)Nc1cc2c(Nc3cccc(Cl)c3F)ncnc2cc1OCCOC(F)F` , thanks.
Completion: 1.99 µM

Prompt: Need GI50 of `Cc1ccc(NC2=CC(=O)C(=O)c3ccccc32)cc1` , thanks.
Completion: 1.8 µM

Prompt: Need GI50 of Cc1ccc(C2C3Cc4ccccc4C3=NN2c2ccc(S(=O)(=O)NC(=O)Nc3ccccc3)cc2)cc1 (configuration not stated) , thanks.
Completion: 19.3 µM

Prompt: Need GI50 of `Cc1cc(OCc2nn(CN3CCN(C)CC3)c(=S)n2/N=C/c2ccc(F)cc2)ccc1Cl` , thanks.
Completion: 18.7 µM

Prompt: Need GI50 of `Cc1nn(-c2ccccc2)c2nc(C)n(-c3ccc(Br)cc3)c(=O)c12` , thanks.
Completion: 0.678 µM

Prompt: Need GI50 of `CC(=O)[CH-]C(=O)c1ccccc1.CC(=O)[CH-]C(=O)c1ccccc1.CC(=O)[CH-]C(=O)c1ccccc1.[Br-].[Zr+4]` , thanks.
Completion: 64 µM

Prompt: Need GI50 of `COC(=O)[C@H](CCCCNC(=O)OCc1ccccc1)NC(=O)[C@@H](NC(=O)Nc1cc(C(F)(F)F)cc(C(F)(F)F)c1)C(C)C` , thanks.
Completion: > 10 µM

Prompt: Need GI50 of `CC(=O)/C=C/c1ccc(N(CCO)Cc2ccc(C(C)(C)C)cc2)cc1` , thanks.
Completion: 104 µM

Prompt: Need GI50 of `Nc1nc(N)c(-c2ccc(Cl)c(Cl)c2)c(CP(Cl)(Cl)(Cl)Br)n1` , thanks.
Completion: 72.7 µM

Prompt: Need GI50 of `CC(=O)c1ccc(Oc2c3ccccc3nc3occc23)cc1` , thanks.
Completion: > 100 µM

Prompt: Need GI50 of `CC1(C)CC[C@]2(CO)CC[C@]3(C)C(=CC[C@@H]4[C@@]5(C)CCNCC(C)(C)[C@@H]5CC[C@]43C)[C@@H]2C1` , thanks.
Completion: 3.65 µM

Prompt: Need GI50 of `COc1cccc(-c2nn(-c3ccccc3)cc2-c2ccnc(NCCCNS(=O)(=O)c3ccc(C(F)(F)F)cc3)c2)c1` , thanks.
Completion: 13.8 µM

Prompt: Need GI50 of `CC(=N\O)/C(C)=N/O.CC(=N\O)/C(C)=N/O.[Fe].[NH2-].c1c[nH]cn1` , thanks.
Completion: > 100 µM

Prompt: Need GI50 of CC[Si](CC)(CC)OC1[C@@H](O[Si](CC)(CC)CC)[C@@H](CNC(=O)NC)O[C@H]1n1cnc2c(NC(=O)Nc3ccccc3)ncnc21 (some centres not stated) , thanks.
Completion: 16 µM

----------
Test system: COLO 205 colon
Assay: NCI tumour cell line growth inhibition, 48 h
readout_name: TGI (µM)
Return type: number; implicit unit µM.

Prompt: Missing value: TGI, COLO 205 colon, entry `C/C=C(\C)C(=O)O[C@@H]1C=CC(=O)O[C@H]1CNC(=O)[C@H](C)O` . Fill in?
Completion: 27.2

Prompt: Missing value: TGI, COLO 205 colon, entry `CCCCNCCCCCNc1cc(OC)cc2cccnc12` . Fill in?
Completion: 33.8

Prompt: Missing value: TGI, COLO 205 colon, entry CC(=O)OCC1=CC2CCC3C(C)(CCC[C@]3(C)COC(C)=O)C23CC[C@H]1C3 (stereo partly specified) . Fill in?
Completion: 49.3

Prompt: Missing value: TGI, COLO 205 colon, entry `C1=Cc2cccc3occ(c23)C=C1` . Fill in?
Completion: 90.7

Prompt: Missing value: TGI, COLO 205 colon, entry `Cn1cc(-c2nc(-c3cn(C)c4ncccc34)cs2)c2ccccc21` . Fill in?
Completion: 14

Prompt: Missing value: TGI, COLO 205 colon, entry COc1ccc(C(Nc2ccccn2)c2cc(C(C)(C)C)cc(C(C)(C)C)c2O)cc1 (stereo unspecified) . Fill in?
Completion: 50
